- procedure-text: melting temperature; melt of duplexes
- reported-conditions: sodium 0.0675 M; strand 1 µM
quantity-kind: Tm (°C)

> print(dat)
                                  substance  measurement
1  CGACGTGCCGTATGTGCTG+CAGCACATGGTGCACGTCG ((((((((...((((((((+))))))))...))))))))         46.6
2  CGACGTGCGATATGTGCTG+CAGCACATCCTGCACGTCG ((((((((...((((((((+))))))))...))))))))         49.5
3  CGACGTGCTACATGTGCTG+CAGCACATCCTGCACGTCG ((((((((...((((((((+))))))))...))))))))         48.3
4  CGACGTGCGAGATGTGCTG+CAGCACATCGCGCACGTCG (((((((((.(((((((((+))))))))).)))))))))         62.5
5  CGACGTGCTAGATGTGCTG+CAGCACATAAGGCACGTCG ((((((((...((((((((+))))))))...))))))))         51.4
6  CGACGTGCCGAATGTGCTG+CAGCACATTGGGCACGTCG (((((((((.(((((((((+))))))))).)))))))))           59
7  CGACGTGCTGGATGTGCTG+CAGCACATTCCGCACGTCG ((((((((.(.((((((((+)))))))).).))))))))         53.9
